Data credit: patent US12662479B2

Biological target: HiBit-BRM fusion protein (Homo sapiens)
Construct: expressed in transfected cells
Test: HiBiT-BRM cell-based degradation assay (Nano-Glo HiBiT Lytic Detection, 24 h)
Conditions: HeLa cells expressing HiBiT-BRM, read-out: BRM HiBit Degradation IC50
Recorded measurements of DC50, one per entry
MEASURED PARAMETER: DC50

- MOLECULE: "CS(=O)(=O)n1ccc(C(=O)NCC(=O)Nc2nc(-c3cccc(-c4ccnc(C5(C(=O)N6CC(CN7CCN(c8ccc9c(c8)C(=O)N(C8CCC(=O)NC8=O)C9=O)CC7)C6)CC5)c4)c3)cs2)c1 (stereo not drawn)"
  MEASURED PARAMETER: "DC50"
  RESULT: "0.1 to 1 µM"
- MOLECULE: "CS(=O)(=O)n1ccc(C(=O)N[C@@H](CCCCNC(=O)CCN2CCN(c3ccc4c(c3)C(=O)N(C3CCC(=O)NC3=O)C4=O)CC2)C(=O)Nc2nc(-c3ccccc3)cs2)c1 (stereo partly drawn)"
  MEASURED PARAMETER: "DC50"
  RESULT: "> 10 µM"
- MOLECULE: "CS(=O)(=O)n1ccc(C(=O)N[C@@H](CCCCNC(=O)CCOCCOCCOc2cccc3c2C(=O)N(C2CCC(=O)NC2=O)C3=O)C(=O)Nc2nc(-c3ccccc3)cs2)c1 (stereo partly drawn)"
  MEASURED PARAMETER: "DC50"
  RESULT: "> 10 µM"
- MOLECULE: "CS(=O)(=O)n1ccc(C(=O)NCC(=O)Nc2nc(C3CCCN(C(=O)CCCCCCCCCCNc4ccc5c(c4)C(=O)N(C4CCC(=O)NC4=O)C5=O)C3)cs2)c1 (stereo not drawn)"
  MEASURED PARAMETER: "DC50"
  RESULT: "> 10 µM"
- MOLECULE: "CS(=O)(=O)n1ccc(C(=O)N[C@@H](COCc2ccc(C(=O)N3CCC(CN4CCN(c5ccc6c(c5)C(=O)N(C5CCC(=O)NC5=O)C6=O)CC4)CC3)cc2)C(=O)Nc2nc(-c3ccccc3)cs2)c1 (stereo partly drawn)"
  MEASURED PARAMETER: "DC50"
  RESULT: "> 10 µM"
- MOLECULE: "Cc1ncsc1-c1ccc(CNC(=O)[C@@H]2C[C@@H](O)CN2C(=O)[C@@H](NC(=O)CCC(=O)NCCOc2cc(-c3cccc(-c4csc(NC(=O)CNC(=O)c5ccn(S(C)(=O)=O)c5)n4)c3)ccn2)C(C)(C)C)cc1"
  MEASURED PARAMETER: "DC50"
  RESULT: "> 10 µM"
- MOLECULE: "CS(=O)(=O)n1ccc(C(=O)NCC(=O)Nc2nc(-c3cccc(-c4ccnc(C5(C(=O)NCCOCCOCCNc6cccc7c6C(=O)N(C6CCC(=O)NC6=O)C7=O)CC5)c4)c3)cs2)c1 (stereo not drawn)"
  MEASURED PARAMETER: "DC50"
  RESULT: "> 10 µM"
- MOLECULE: "CS(=O)(=O)n1ccc(C(=O)NCC(=O)Nc2nc(-c3cccc(-c4ccnc(C5(C(=O)N6CCC7(CC6)CC(Oc6ccc8c(c6)C(=O)N(C6CCC(=O)NC6=O)C8=O)C7)CC5)c4)c3)cs2)c1 (stereo not drawn)"
  MEASURED PARAMETER: "DC50"
  RESULT: "> 10 µM"
- MOLECULE: "CS(=O)(=O)n1ccc(C(=O)NCC(=O)Nc2nc(-c3cccc(-c4ccnc(C5(C(=O)N6CC(COc7ccc8c(c7)C(=O)N(C7CCC(=O)NC7=O)C8=O)C6)CC5)c4)c3)cs2)c1 (stereo not drawn)"
  MEASURED PARAMETER: "DC50"
  RESULT: "> 10 µM"
- MOLECULE: "CS(=O)(=O)n1ccc(C(=O)N[C@@H](CCOCCCC(=O)N2CCN(CCCCCOc3ccc4c(c3)C(=O)N(C3CCC(=O)NC3=O)C4=O)CC2)C(=O)Nc2nc(-c3ccccc3)cs2)c1 (stereo partly drawn)"
  MEASURED PARAMETER: "DC50"
  RESULT: "> 10 µM"
- MOLECULE: "Cc1ncsc1-c1ccc(CNC(=O)[C@@H]2C[C@@H](O)CN2C(=O)[C@@H](NC(=O)CCCCCNC(=O)CCCOCC[C@H](NC(=O)c2ccn(S(C)(=O)=O)c2)C(=O)Nc2nc(-c3ccccc3)cs2)C(C)(C)C)cc1"
  MEASURED PARAMETER: "DC50"
  RESULT: "> 10 µM"
- MOLECULE: "CS(=O)(=O)n1ccc(C(=O)N[C@@H](COCc2ccc(C(=O)NCCCCCCNc3ccc4c(c3)C(=O)N(C3CCC(=O)NC3=O)C4=O)cc2)C(=O)Nc2nc(-c3ccccc3)cs2)c1 (stereo partly drawn)"
  MEASURED PARAMETER: "DC50"
  RESULT: "0.1 to 1 µM"
- MOLECULE: "CS(=O)(=O)n1ccc(C(=O)N[C@@H](CCOCCCC(=O)N2CC(COc3cccc4c3C(=O)N(C3CCC(=O)NC3=O)C4=O)C2)C(=O)Nc2nc(-c3ccccc3)cs2)c1 (stereo partly drawn)"
  MEASURED PARAMETER: "DC50"
  RESULT: "> 10 µM"
- MOLECULE: "Cc1ncsc1-c1ccc(CNC(=O)[C@@H]2C[C@@H](O)CN2C(=O)[C@@H](NC(=O)CCCCCCC(=O)NCCCC[C@H](NC(=O)c2ccn(S(C)(=O)=O)c2)C(=O)Nc2nc(-c3ccccc3)cs2)C(C)(C)C)cc1"
  MEASURED PARAMETER: "DC50"
  RESULT: "> 10 µM"
- MOLECULE: "CS(=O)(=O)n1ccc(C(=O)N[C@@H](COCc2ccc(C(=O)N3CC(COc4cccc5c4C(=O)N(C4CCC(=O)NC4=O)C5=O)C3)cc2)C(=O)Nc2nc(-c3ccccc3)cs2)c1 (stereo partly drawn)"
  MEASURED PARAMETER: "DC50"
  RESULT: "> 10 µM"
- MOLECULE: "CS(=O)(=O)n1ccc(C(=O)NCC(=O)Nc2nc(-c3cccc(-c4ccnc(N5CCN(C(=O)CCCCCCCCCCNc6ccc7c(c6)C(=O)N(C6CCC(=O)NC6=O)C7=O)CC5)c4)c3)cs2)c1 (stereo not drawn)"
  MEASURED PARAMETER: "DC50"
  RESULT: "0.1 to 1 µM"
- MOLECULE: "CS(=O)(=O)n1ccc(C(=O)NCC(=O)Nc2nc(-c3cccc(-c4ccnc(C5(C(=O)NCCNc6ccc7c(c6)C(=O)N(C6CCC(=O)NC6=O)C7)CC5)c4)c3)cs2)c1 (stereo not drawn)"
  MEASURED PARAMETER: "DC50"
  RESULT: "< 0.1 µM"
- MOLECULE: "Cc1ncsc1-c1ccc(CNC(=O)[C@@H]2C[C@@H](O)CN2C(=O)[C@@H](NC(=O)CCCCCCCNC(=O)C2(c3cc(-c4cccc(-c5csc(NC(=O)CNC(=O)c6ccn(S(C)(=O)=O)c6)n5)c4)ccn3)CC2)C(C)(C)C)cc1"
  MEASURED PARAMETER: "DC50"
  RESULT: "< 0.1 µM"

----------
Target: HiBit-BRM fusion protein (Homo sapiens, UniProt P51531)
Construct: expressed in transfected cells
Sequence (P51531 whole entry, the tested form may be a part): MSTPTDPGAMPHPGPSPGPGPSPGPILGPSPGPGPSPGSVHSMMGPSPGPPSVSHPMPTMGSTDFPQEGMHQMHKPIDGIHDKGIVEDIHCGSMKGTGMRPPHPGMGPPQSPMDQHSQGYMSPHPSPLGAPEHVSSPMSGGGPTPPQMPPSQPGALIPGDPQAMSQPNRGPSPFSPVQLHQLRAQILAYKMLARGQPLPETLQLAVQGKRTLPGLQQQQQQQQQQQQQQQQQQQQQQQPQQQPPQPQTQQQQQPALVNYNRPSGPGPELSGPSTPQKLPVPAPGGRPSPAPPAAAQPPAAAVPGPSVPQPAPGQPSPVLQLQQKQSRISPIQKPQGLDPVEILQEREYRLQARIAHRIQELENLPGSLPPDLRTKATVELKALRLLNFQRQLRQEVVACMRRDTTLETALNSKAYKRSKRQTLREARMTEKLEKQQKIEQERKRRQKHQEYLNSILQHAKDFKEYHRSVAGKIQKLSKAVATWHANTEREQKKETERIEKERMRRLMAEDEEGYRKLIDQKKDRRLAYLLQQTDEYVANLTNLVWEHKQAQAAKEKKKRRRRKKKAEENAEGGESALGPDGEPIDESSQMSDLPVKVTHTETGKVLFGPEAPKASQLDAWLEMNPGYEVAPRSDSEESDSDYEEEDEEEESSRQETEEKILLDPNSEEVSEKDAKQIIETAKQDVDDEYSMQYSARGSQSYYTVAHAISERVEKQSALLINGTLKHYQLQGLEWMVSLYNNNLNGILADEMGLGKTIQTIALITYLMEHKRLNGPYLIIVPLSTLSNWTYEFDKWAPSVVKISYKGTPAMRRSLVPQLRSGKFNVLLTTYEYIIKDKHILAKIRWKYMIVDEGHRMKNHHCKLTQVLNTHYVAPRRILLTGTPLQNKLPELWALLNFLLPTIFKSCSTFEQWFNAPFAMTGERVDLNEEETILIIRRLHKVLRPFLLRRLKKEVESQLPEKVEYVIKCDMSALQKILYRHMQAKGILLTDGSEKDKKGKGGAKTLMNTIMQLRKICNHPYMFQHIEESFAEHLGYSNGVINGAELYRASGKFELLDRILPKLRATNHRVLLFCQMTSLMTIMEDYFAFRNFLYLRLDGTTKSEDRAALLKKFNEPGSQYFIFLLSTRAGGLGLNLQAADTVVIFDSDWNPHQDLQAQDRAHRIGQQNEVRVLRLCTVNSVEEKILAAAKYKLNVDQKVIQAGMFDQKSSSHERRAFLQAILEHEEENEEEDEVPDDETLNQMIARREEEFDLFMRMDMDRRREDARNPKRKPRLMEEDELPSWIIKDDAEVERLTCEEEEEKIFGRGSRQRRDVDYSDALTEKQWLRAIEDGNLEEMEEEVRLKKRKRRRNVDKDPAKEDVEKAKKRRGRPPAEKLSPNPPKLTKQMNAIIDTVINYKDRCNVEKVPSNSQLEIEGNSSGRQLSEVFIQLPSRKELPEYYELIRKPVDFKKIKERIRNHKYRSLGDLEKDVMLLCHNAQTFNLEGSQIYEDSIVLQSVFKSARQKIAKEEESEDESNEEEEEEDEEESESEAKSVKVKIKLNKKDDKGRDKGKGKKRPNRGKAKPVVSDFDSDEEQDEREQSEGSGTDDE
Experiment: HiBiT-BRM cell-based degradation assay (Nano-Glo HiBiT Lytic Detection, 24 h)
Details: HeLa cells expressing HiBiT-BRM, read-out: BRM HiBit Degradation IC50

- MOLECULE: "CS(=O)(=O)n1ccc(C(=O)N[C@@H](CCOCCCC(=O)NCCOCCOCCOCCNC(=O)COc2cccc3c2C(=O)N(C2CCC(=O)NC2=O)C3=O)C(=O)Nc2nc(-c3ccccc3)cs2)c1 (some centres unmarked) [Compound 258]"
  TEST SYSTEM: "HiBit-BRM fusion protein (Homo sapiens, UniProt P51531)"
  DC50: "> 10 µM"
- MOLECULE: "Cc1ncsc1-c1ccc(CNC(=O)[C@@H]2C[C@@H](O)CN2C(=O)[C@@H](NC(=O)CCCCCNC(=O)CCCOC[C@H](NC(=O)c2ccn(S(C)(=O)=O)c2)C(=O)Nc2nc(-c3ccccc3)cs2)C(C)(C)C)cc1 [Compound 226]"
  TEST SYSTEM: "HiBit-BRM fusion protein (Homo sapiens, UniProt P51531)"
  DC50: "> 10 µM"
- MOLECULE: "CS(=O)(=O)n1ccc(C(=O)NCC(=O)Nc2nc(-c3cccc(-c4cccc(CNC(=O)CCOCCOCCOc5ccc6c(c5)C(=O)N(C5CCC(=O)NC5=O)C6=O)c4)c3)cs2)c1 (centres unmarked) [Compound 55]"
  TEST SYSTEM: "HiBit-BRM fusion protein (Homo sapiens, UniProt P51531)"
  DC50: "0.1 to 1 µM"
- MOLECULE: "CS(=O)(=O)n1ccc(C(=O)N[C@@H](CCCCNC(=O)CCCCOc2cccc3c2C(=O)N(C2CCC(=O)NC2=O)C3=O)C(=O)Nc2nc(-c3ccccc3)cs2)c1 (some centres unmarked) [Compound 295]"
  TEST SYSTEM: "HiBit-BRM fusion protein (Homo sapiens, UniProt P51531)"
  DC50: "> 10 µM"
- MOLECULE: "CS(=O)(=O)n1ccc(C(=O)NCC(=O)Nc2nc(-c3cccc(-c4cccc(CNC(=O)CCOCCOCCNc5cccc6c5C(=O)N(C5CCC(=O)NC5=O)C6=O)c4)c3)cs2)c1 (centres unmarked) [Compound 42]"
  TEST SYSTEM: "HiBit-BRM fusion protein (Homo sapiens, UniProt P51531)"
  DC50: "> 10 µM"
